Assign TGI to each entry below.
tested on: SF-539 CNS; assay: NCI tumour cell line growth inhibition, 48 h
One number for each entry, in µM.

These recorded examples may help you get a feel for the data.
Tell me reported TGI for CC[N+]1(C)CCC(O)(c2ccccc2)C(C(=O)c2ccccc2)C1 (stereo not given) , tested with SF-539 CNS.
31.3

Write down the reported TGI of "COC(=O)c1ccc2c(c1)C(=O)c1c-2n(CCCN)c(=O)c2cc([N+](=O)[O-])ccc12" , test system: SF-539 CNS.
0.21

Can you give me TGI for all of these, one by one?
1. CC(=O)OC1CCC2(C)C(CCC3C4CC=C(C(C)=O)C4(C)OC(=O)CC32)C1 (stereo not given)
2. COc1cc(Cn2ccc3c2-c2oncc2CC3)cc(OC)c1
3. ClC1=NC(Cl)C(Cl)=N/C1=N\c1ncn[nH]1 (stereo not given)
4. CC#Cc1cc2c(cc1O)CC[C@@H]1[C@@H]2CC[C@]2(C)[C@@H](O)CC[C@@H]12

3.55
21.4
5.6
6.04

Which TGI is reported with SF-539 CNS for this entry: "S=C=NCc1ccccc1" ?
3.79

---

system: RPMI-8226 leukemia; assay: NCI tumour cell line growth inhibition, 48 h
Assignment: determine reported TGI for the given compounds.

Guide cases for TGI, answers given:
Query (compound): "CCOC(=O)C(=Cc1cc(OC)ccc1OC)C(=O)OCC" ; field requested: TGI
10.9 µM

Quick check: TGI of "CC#Cc1cc2c(cc1O)CC[C@@H]1[C@@H]2CC[C@]2(C)[C@@H](O)CC[C@@H]12" ?
> 66.1 µM

For the compound shown here, "c1ccc(N=c2sc3ccccc3sc2=Nc2ccccc2)cc1" , give the reported TGI.
> 100 µM

For the compound CC(=O)OC1C/C(C)=C/CCC(C)/C=C/C2(C)CCC(C(C)(C)O)C12 (stereo unspecified) , what TGI is on record?
71.7 µM

Given the compound "Cc1c(C(=O)/C=C/c2ccccc2Cl)[n+](=O)c2ccccc2n1[O-]" , what is its reported TGI?
36.1 µM

Continuing:
Request the reported TGI associated with "CN(C)c1nc(=NCc2cccs2)ss1"
> 10 µM

---

For each entry below, report its TGI value.
system: SF-539 CNS; test: NCI tumour cell line growth inhibition, 48 h

The examples below pair each entry with its known result.
Look at this molecule and give its reported TGI. "CN1C(=O)[C@@H]2N(CSC2(C)C)C1=S"
> 100 µM

// TGI lookup, key: "Cc1cc(C)n(-c2nc3ccccc3c(=O)n2-c2ccccc2)n1"
> 100 µM

Endpoint output: TGI of Cc1ccc(C2(O)CC(c3ccc([N+](=O)[O-])o3)=NN2C(=O)COc2ccccc2Cl)cc1 (stereo unspecified) . Value?
48.4 µM

Quick one: TGI of COc1cc([C@@H]2c3cc4c(cc3[C@@H](NCc3ccccc3)C3COC(=O)[C@@H]32)OCO4)cc(OC)c1O (stereo partly specified) ?
26.7 µM

// query TGI value for entry "OCc1ccc2c(c1)CC1(C2)Cc2cc3c(cc2C1)CCC3"
> 100 µM

Please give the measured TGI for this molecule: "O=C(O)c1nc2ccccc2nc1Nc1ccc(F)cc1"
60 µM

I have 8 molecules here; please give me TGI for each one.
1. COc1cc(/C=C/c2ccc(OC(C)=O)cc2)cc(OC)c1OC
2. O=C(Nc1ccccc1)NS(=O)(=O)c1ccc(N2N=C3c4ccccc4CC3C2c2ccccn2)cc1 (stereo unspecified)
3. Nc1ccn(C2CC(O)C(CO)O2)c(=O)n1 (stereo unspecified)
4. CC1=CC2=C(C(N)=O)C(=O)OC2(C)C(c2ccccc2)C1 (stereo unspecified)
5. CO/N=C(/COc1c(-c2ccccc2)oc2ccccc2c1=O)c1ccc(OC)cc1
6. CC(C)Oc1ccc(CNC2=NCCO2)c2ccccc12
7. Cc1ccc(N=Nc2c(N)nn(-c3ccccc3)c2N)cc1
8. Fc1ccc(-c2nnc3sc(COc4ccccc4Cl)nn23)cc1Cl

1: 60.8 µM; 2: 75.7 µM; 3: > 5000 µM; 4: > 100 µM; 5: > 100 µM; 6: 24 µM; 7: > 22.8 µM; 8: > 100 µM
